Quick reference: gcPBM binding intensity (ln) of the listed items.
- Test system: PfAP2-G AP2 domain (GST-tagged)
- ASSAY OVERVIEW: gcPBM binding intensity (ln(normalized median fluorescence intensity)); higher = stronger DNA binding
Over roughly 25,000 sequences, “ln(normalized median fluorescence intensity)” has its median near 10; the highest 2% begin near 12. The sample as a whole holds a higher share of the highest values than the screen did.

Use the examples below as a reference point.
AATTTATTTTTTTAATGTACATATGGTATAAATATA [XGTACX_site8012] | 11.3
TATATACAATATAGGTGTACATTTTTTTATCTATTT [XGTACX_site8431] | 11.3

Q: State its gcPBM binding intensity (ln) for this sequence: ATTTTATCTTTAAACTGTACGTATTAATATGTAGAA [XGTACX_site3077]
Result: 11.7

Q: State its gcPBM binding intensity (ln) for this sequence: TTTTTTAATAAATGGTGTACATATTTTTTTTATACT [XGTACX_site8584]
Result: 11.8

Q: State its gcPBM binding intensity (ln) for this sequence: TATTATGTATGTATATGTACGTATCTTATTTTATTT [XGTACX_site5008]
Result: 11.3

Q: State its gcPBM binding intensity (ln) for this sequence: ATATATGTATATTTTTGTACGCATAAATATATTTTT [XGTACX_site827]
Result: 11.3

Q: State its gcPBM binding intensity (ln) for this sequence: ATTTTTTAAAATATTTGTACATATATAATGCATATA [XGTACX_site7026]
Result: 11

Q: State its gcPBM binding intensity (ln) for this sequence: TGTAAATAATATAATAGTACGCATATTTTTATTGAA [XGTACX_site284]
Result: 11.4

Q: State its gcPBM binding intensity (ln) for this sequence: TTAGGTATATATAAACGTACTCACAATATCATATAA [XGTACX_site8743]
Result: 11.1

====

- Test system: PfAP2-G AP2 domain (GST-tagged)
- ASSAY OVERVIEW: gcPBM binding intensity (ln(normalized median fluorescence intensity)); higher = stronger DNA binding
The full ranking holds about 25,000 sequences; the median of “ln(normalized median fluorescence intensity)” is about 10, and the highest 2% start at about 12. For the sample, the highest values were picked, then their nearest neighbours and some sequences at random.
Quick reference: gcPBM binding intensity (ln) of the listed items.
Hey, just send me the number, nothing else.

AAAGTATAAATAAATACACACATATTTATTTATATA [CACACA_site7375] | 9.96
TTAAGTAGTACATACACACACATATACAAAAAGAAA [CACACA_site3972] | 11.7
ATTTAAGTAGTACATACACACACATATACAAAAAGA [CACACA_site9317] | 11.7

Q: State its gcPBM binding intensity (ln) for this sequence: ACATCATATTAAGAAAGTACAAAAAGAGAACATATA [XGTACX_site1268]
Result: 11

Q: State its gcPBM binding intensity (ln) for this sequence: TACGAATTAAAAAAGAGTACAAATAAAATATCTACA [XGTACX_site7412]
Result: 11.3

Q: State its gcPBM binding intensity (ln) for this sequence: CTTCCTTAGGAATGTACACACATATAAAATATGTTG [CACACA_site6355]
Result: 11.4

Q: State its gcPBM binding intensity (ln) for this sequence: TTCTTTATTTTTTCTACACACATTATATATTCAAAG [CACACA_site5866]
Result: 10.1

Q: State its gcPBM binding intensity (ln) for this sequence: ACATATATATAAAGGTGTACACATATATATATATAT [XGTACX_site4779]
Result: 11.7

Q: State its gcPBM binding intensity (ln) for this sequence: ATACGAAAAAAAAAAAGTACACAAAAATATCTACAT [XGTACX_site2051]
Result: 11.7

====

- Test system: PfAP2-G AP2 domain (GST-tagged)
- ASSAY OVERVIEW: gcPBM binding intensity (ln(normalized median fluorescence intensity)); higher = stronger DNA binding
Whole data set: some 25,000 sequences, median “ln(normalized median fluorescence intensity)” near 10, cut for the highest 2% near 12. What follows is part of a selection rich in the highest values, with near analogues and random picks from the rest.
PROPERTY NAME: gcPBM binding intensity (ln)
Hey, just send me the number, nothing else.

Q: State its gcPBM binding intensity (ln) for this sequence: TTTTTTTTGTGTATTTGTACATAATATATATATATA [XGTACX_site7092]
Result: 10.9

Q: State its gcPBM binding intensity (ln) for this sequence: AAAAAAAAAAAAAGTACACACATACAGATAAATATA [CACACA_site5067]
Result: 11.6

Q: State its gcPBM binding intensity (ln) for this sequence: TGTTCCGAAGGTTGTACACACATAGAAATATACATA [CACACA_site3874]
Result: 11.6

Q: State its gcPBM binding intensity (ln) for this sequence: CATAAAATTGTATTTTGTACACATTTTGTATACATT [XGTACX_site5705]
Result: 11.4

Q: State its gcPBM binding intensity (ln) for this sequence: AATTTACATATATATTGTACATTTATGTATATATAT [XGTACX_site4186]
Result: 10.7

Q: State its gcPBM binding intensity (ln) for this sequence: TTTTTTTTTTTAATATGTACGTAAAATAAGTTTAAA [XGTACX_site6495]
Result: 11.4

Q: State its gcPBM binding intensity (ln) for this sequence: ATATATATATATATATGTACACATAAAAAGAAAGAA [XGTACX_site1603]
Result: 11.7

Q: State its gcPBM binding intensity (ln) for this sequence: CATAAATACTATATATGTACGTAATTTTTAAAACAT [XGTACX_site7710]
Result: 11.6

====

- Test system: PfAP2-G AP2 domain (GST-tagged)
- ASSAY OVERVIEW: gcPBM binding intensity (ln(normalized median fluorescence intensity)); higher = stronger DNA binding
Over roughly 25,000 sequences, “ln(normalized median fluorescence intensity)” has its median near 10; the highest 2% begin near 12. For the sample, the highest values were picked, then their nearest neighbours and some sequences at random.
PROPERTY NAME: gcPBM binding intensity (ln)
Hey, just send me the number, nothing else.

Use the examples below as a reference point.
AAAAAAAAAATTAAAAGTACAGAAAATAAATAAATA [XGTACX_site7470] | 11.4
ATATAATATATATGGTGTACATTTTTTAGTGCTATT [XGTACX_site1662] | 11.4
AATATGACGTAGTGGTGTACACACATGGTACCTTTA [XGTACX_site3147] | 11.7
TATATATATTTATGTACACACATATATACCTTTCAT [CACACA_site5479] | 11.4
ATATAAGAACAAAATTGTACATAAATATTTATATAA [XGTACX_site7404] | 10.8
CCGTATTCAAAAAGGAGTACACAATTATATGTTATA [XGTACX_site641] | 11.7
ACAGACGTTCAAAGGTGTACGCAAAATGAATAATAT [XGTACX_site7565] | 11.6
TATGGAACACACCTTAATATGTGATAAAATATGATA [GTGCAC_negctrl_site718] | 10
TATATAAATATATATGTACACACATATACATGTTGA [CACACA_site9022] | 11.3
AAAAAAAAAAAAAAAAGTACACAAATTTTAAAAATT [XGTACX_site3006] | 11.6

Q: State its gcPBM binding intensity (ln) for this sequence: ATGACGTAGTGGTGTACACACATGGTACCTTTATTC [CACACA_site1547]
Result: 11.6

Q: State its gcPBM binding intensity (ln) for this sequence: GTATAAAAAAATAAAAGTACAAAAAAAAAAGACTGA [XGTACX_site186]
Result: 11.4

Q: State its gcPBM binding intensity (ln) for this sequence: TCTTATTTTTTTATATATACAAAGTTTTATATATAT [GTGCAC_negctrl_site314]
Result: 9.91

Q: State its gcPBM binding intensity (ln) for this sequence: TAGTATAATATGAACACACACACACGCACAAAAAAA [CACACA_site7035]
Result: 10.4

Q: State its gcPBM binding intensity (ln) for this sequence: TATAAAAGGTAAGAGTGTACAAGTAAAAAATTTTTA [XGTACX_site771]
Result: 11.2

Q: State its gcPBM binding intensity (ln) for this sequence: AAAAAAAAAAAAAAAAGTACAGACGTCAAAAAAAAA [XGTACX_site4817]
Result: 11.6

Q: State its gcPBM binding intensity (ln) for this sequence: TGTGTATAAAAAAAGTGTACACAAAGTAAGACTTTA [XGTACX_site3759]
Result: 11.7

Q: State its gcPBM binding intensity (ln) for this sequence: AATTTTGTTAAAAGGACACACAATTCAATATATTAA [CACACA_site647]
Result: 11.1

Q: State its gcPBM binding intensity (ln) for this sequence: ATAATAAATAAATAATGTACATATGAAAGAATAAAT [XGTACX_site8355]
Result: 11.1
